system: SK-OV-3; test: NCI tumour cell line growth inhibition, 48 h
Calls of active or inactive are those of the source. Rule as the data show it: active = GI50 up to about 1.1 µM and inactive = higher.
property.name: GI50

Recorded GI50, per entry:
# compound, recorded.result
records = [
    ("O=[N+]([O-])c1ccc2occ3c2c1CCC3", "> 100 µM (inactive)"),
    ("CC1(C)CC[C@]2(C)[C@@H](O)C[C@]3(C)C(=CC[C@@H]4[C@@]5(C)CC[C@H](O)C(C)(C)[C@@H]5CC[C@]43C)[C@@H]2C1", "14.9 µM (inactive)"),
    ("CC1(C)CC(=O)C(CC2C(=O)c3ccccc3C2=O)C(=O)C1C(=O)C(=O)Nc1cccc2ccc(O)cc12 (configuration not stated)", "> 100 µM (inactive)"),
    ("CCCCCCC(C)CCCCCCCCCCC(=O)O (configuration not stated)", "> 100 µM (inactive)"),
    ("CC1=C2C(=O)OCC23C=COC3(C)O1 (configuration not stated)", "46 µM (inactive)"),
]

List reported GI50 for each of these compounds:
1. CCOC(=O)c1ccc(Nc2nc3ccc(C(F)(F)F)cc3nc2C(=O)OCC)cc1
2. CCN(CC)CCN1C=CC(C)C(C(=O)O)C1C(N)=O (configuration not stated)
3. Nc1nnc2oc3ccc4ccccc4c3cc1-2
4. O=C(NCc1cccs1)OC1CC2CCC1C2 (configuration not stated)
5. C1CSCCCSCCSCCCSC1
6. CCCCC(/C=N/NC(=N)N)CC.Cc1cc(O)c(C(C)C)cc1S(=O)(=O)O
7. NCC(O)CNC(=O)c1ccc(-c2ccc(-c3ccc(C(=O)NCC(O)CN)cc3)o2)cc1 (configuration not stated)

output:
> 100 µM (inactive)
> 100 µM (inactive)
67.5 µM (inactive)
> 100 µM (inactive)
> 100 µM (inactive)
59.8 µM (inactive)
23.9 µM (inactive)

* * *

Kindly state GI50 for each of the entries shown.
tested on: EKVX; test: NCI tumour cell line growth inhibition, 48 h
The source made the active and inactive calls. Rule as the data show it: active = GI50 up to about 1.1 µM and inactive = higher.

Recorded GI50, per entry:
# molecule, GI50
data = [
    ("O=S(=O)(O)c1ccccc1/N=N\\c1ccc(/N=N/c2c(O)ccc3ccccc23)c(S(=O)(=O)O)c1", "> 100 µM (inactive)"),
    ("CCCCCCCC(=O)O[C@H]1[C@H]2[C@@H](CC1(C)C)C(=O)[C@]13O[C@H]1C(=O)[C@]1(CO1)[C@]23C", "3.66 µM (inactive)"),
    ("COc1ccc(C(=O)C(C(=O)CCC(=O)Nc2cccc(Cl)c2)c2ccc(OC)cc2)cc1 (centres undefined)", "> 100 µM (inactive)"),
    ("Cc1cn(CCOCCOC(=O)NC(CCCNC(N)=O)C(=O)O)c(=O)[nH]c1=O (centres undefined)", "> 100 µM (inactive)"),
    ("O=[N+]([O-])c1ccc2occ3c2c1CCC3", "> 100 µM (inactive)"),
    ("COC12c3ccccc3-c3ccccc3C1[C@H]1C(=O)OC(=O)[C@H]12 (some centres undefined)", "> 10 µM (inactive)"),
    ("Nc1nc2c3nc(Nc4ccccc4)sc3nc(=O)n2c2sc(Nc3ccccc3)nc12", "> 100 µM (inactive)"),
    ("Cn1c(=O)c2c(nc3n2CC(C(=O)O)N3)n(C)c1=O (centres undefined)", "> 100 µM (inactive)"),
]

Next molecule, GI50 to be filled in.
input: Please look up its GI50: "COC(=O)/C=C\S/C(=C(/c1ccccc1)n1ccc(C(=O)OC)n1)c1ccccc1"
output: 26.5 µM (inactive)
